assay: solvent given as SMILES; conditions: in ClC(Cl)Cl
absorption maximum strictly less than 500 nm = 1. Otherwise -1.

Example results:
CCCN1c2ccccc2Sc2cc(/C=C\c3cc(=O)oc4cc(O)ccc34)ccc21: 1
COc1ccc2c(-c3nc(-c4ccccc4)no3)cc(=O)oc2c1: 1
CCC1=C(C)C2=C(c3c(C)cc(C)nc3-c3cccs3)c3c(C)c(CC)c(C)n3[B-](F)(F)[N+]2=C1C: -1
CC1(C)CC(/N=C/c2ccc3ccc4cccc5ccc2c3c45)CC(C)(C)N1[O]: 1
COc1cc2c(cc1OC)C1=C3C(=O)N4C=Cc5cc(OC)c(OC)cc5C4=C3C(=O)N1C=C2: -1

Attention now shifts to the item below.
## Task Determine whether this compound shows absorption maximum lower than 500 nm (ties excluded): CCCCCCN1C(=O)c2cccc3c(-c4sc(-c5ccc6c7c(cccc57)C(=O)N(CCCCCC)C6=O)c5c4OCCO5)ccc(c23)C1=O
## Result 1

---

test: solvent given as SMILES; settings: in CC#N
measured_parameter: absorption maximum
Include the unit right after the number.

CCCCCCCCCCCCOc1cc2cc(N(C)C)ccc2cc1C#N: 368 nm
c1ccc2c(c1)nc1ccccn12: 344 nm

## Task I'd like to know its absorption maximum. The compound in question is Cc1ccc(-c2[nH]c(=O)n3c2-c2ccccc2C3=O)c(O)c1
## Result 393 nm

## Task Next entry: CCC1(CC)c2cc(B(c3c(C)cc(C)cc3C)c3c(C)cc(C)cc3C)ccc2-c2c1c1c(c3c2C(CC)(CC)c2cc(B(c4c(C)cc(C)cc4C)c4c(C)cc(C)cc4C)ccc2-3)C(CC)(CC)c2cc(B(c3c(C)cc(C)cc3C)c3c(C)cc(C)cc3C)ccc2-1
## Result 359 nm

## Task Next entry: CC1=CC(c2ccc3ccccc3c2)=[O+][B-]2(OC(=O)C(=O)O2)O1
## Result 400 nm

## Task Next entry: COc1ccc(-n2nc(C#N)c(N3CCCC3)n2)cc1OC
## Result 344 nm

## Task Next entry: COC(=O)c1ccc(C#Cc2ccccc2)cc1
## Result 311.6 nm

## Task Next entry: O=[N+]([O-])c1ccc(/C=C/c2cn(S(=O)(=O)c3ccccc3)c3ccccc23)cc1
## Result 369 nm

## Task Next entry: N#C/C(=C\c1ccc(C#N)cc1)c1nc(-c2ccccc2)cs1
## Result 370 nm

## Task Next entry: O=C1c2ccccc2C2=Cc3cc4c(cc3B(O)N12)OCO4
## Result 392 nm

## Task Next entry: CC(C)[Si]1(C(C)C)c2cc(C=C(C#N)C#N)ccc2-c2ccc(N(c3ccccc3)c3ccccc3)cc21
## Result 461 nm

---

assay: solvent given as SMILES; details: in CCCCOCCCC
measured_parameter: absorption maximum (nm)
Answer in nm, number only, no unit symbol.

Check out these entries, answers already filled in.
CC(=O)Nc1cc2ccc3cccc4ccc(c1)c2c34: 336
Nc1ccc2ccc3cccc4ccc1c2c34: 361
c1ccc(Nc2nc(Nc3ccccc3)nc(Nc3ccc4c5cccc6cccc(c7cccc3c74)c65)n2)cc1: 444
COc1nc(Cl)nc(Nc2ccc3cc4ccccc4cc3c2)n1: 396
c1ccc(-c2nn(-c3ccccc3)c3nc4ccc(-n5c6ccccc6c6ccccc65)cc4cc23)cc1: 418.06

## Task I'd like to know its absorption maximum. The compound in question is Clc1nc(Nc2ccccc2)nc(Nc2ccc3c4cccc5cccc(c6cccc2c63)c54)n1
## Result 443

## Task Next entry: O=c1c2ccccc2n2c3ccc(-c4ccccc4)cc3c(=O)c3cccc1c32
## Result 437
